Provenance of the data: patent US20060100431A1

Kindly state Ki for each of the entries shown.
Target: human cathepsin B (Homo sapiens)
Construct: purchased CN Biosciences
Assay: Cathepsin B peptidase activity assay (Ki)
Assay type: biochemical
Settings: read-out: Ki, inhibitors of cathepsin B

get_value(item= CC(=O)N[C@@H](CC(C)C)C(=O)N1CC(=O)[C@@H]2[C@H]1CCN2C(=O)[C@H](CC(C)C)NC(=O)c1ccc(N(C)C)cc1 [Example 151] , readout=Ki) returns < 5 µM

Recorded result, O=C(N[C@@H](CC1CCCCC1)C(=O)N1CC[C@@H]2[C@H]1C(=O)CN2C(=O)c1ccc(-c2ccccc2)s1)c1ccsc1 [Example 258] , Ki: < 5 µM

Ki in this record for CC(C)C[C@H](NC(=O)c1ccc(C(C)(C)C)cc1)C(=O)N1CC[C@@H]2[C@H]1C(=O)CN2C(=O)c1csc(-c2ccccc2)n1 [Example 27] : < 5 µM
